Target: T1, huFLT3-T227 stably expressed on Ramos cells (human, UniProt P36888 27-993)
T1 construct: whole, on cells; also called FLT3 WT
Assay: FACS on cells
Each record here notes measured FACS geometric mean fold change over Jurkat parental.

[
  {
    "binder": "Polypeptide No. 270 (scFv, V domains shown, scFv) VH: QVQLVQSGAEVKKPGASVKVSCKASGGTFSSYYMHWVRQAPGQGLEWMGWISAYNGNTNYAQKLQGRVTMTRDTSTSTVYMELSSLRSEDTAVYYCAKDMGYYYDSSGGFDYWGQGTLVTVSS VL: DIQMTQSPSSLSASVGDRVTITCRASQSISSYLNWYQQKPGKAPKLLIYDASNLETGVPSRFSGSGSGTDFTLTISSLQPEDFATYYCQQTYTTPLTFGQGTKVEIKR",
    "reported_value": "10 to 30 fold"
  }
]

Kindly consider the entry below.
I'd like to know its FACS geometric mean fold change over Jurkat parental. The binder in question is Polypeptide No. 242 (scFv, V domains shown, scFv) VH: QVQLVQSGAEVKKPGSSVKVSCKASGGTFSSATISWVRQAPGQGLEWMGGIIPMFGTANYAQKFQGRVTITADESTSTAYMELSSLRSEDTAVYYCARDAYGDSTWGQGTLVTVSS VL: EIVMTQSPATLSVSPGERATLSCRASESVSSALAWYQQKPGQAPRLLIYGASTRATGIPARFSGSGSGTEFTLTISSLQSEDFAVYYCQQYGNSVTFGGGTKVEIKR
> 30 fold
